# experimental.protocol: Viability qHTS for spleen associated tyrosine kinase inhibitor (SYKi) drug resistant MV4-11 cells (AID 1963824); also: nearly all actives have a fitted effect of over 35% in size
# test.parameters: SYKi-resistant MV4-11 viability, CellTiter-Glo, 72 h; series mostly up to 45 µM
# Method: Department of Medicine, Hematology/Oncology University Hospital Frankfurt, Germany. Trials have shown promising clinical activity of the selective SYK inhibitor entospletinib in patients with high expressing HOXA9/MEIS1 acute leukemias. […] 7; Detection; Luminescence; ViewLux plate reader (PerkinElmer). […] 1. Quantitative high-throughput screening (qHTS) of small molecule compounds was conducted on drug resistant SYKi MV4-11 cell line. […] 7. Luminescence was measured on a ViewLux plate reader (PerkinElmer).
Inconclusive results are not listed. Active and inactive are the calls of the source. Calls follow the shape of the dose curve; as a rule, active = well fitted cell-killing curve with a large enough effect; inconclusive = small, poorly fitted or top-dose-only effect, or effect the other way; inactive = no such curve, though single readings can be large or run the other way.
Respond with a class label; see active, inactive

Use these answered entries as a reference point.
{"columns": ["chemical.string", "assigned.class"],
 "data": [
  ["O=C1CCc2cc(S(=O)(=O)Nc3cccc(Cl)c3)ccc2N1", "active"],
  ["COc1ccc2nc3cc(Cl)ccc3c(Nc3cc(CN4CCCC4)c(O)c(CN4CCCC4)c3)c2n1", "active"]
]}

In: Please indicate how the test categorized O=C(CCc1ccc(O)cc1)c1c(O)cc(O)cc1O[C@@H]1O[C@H](CO)[C@@H](O)[C@H](O)[C@H]1O .
Out: inactive

In: Please indicate how the test categorized CC[C@@]1(c2ccccc2)NC(=O)N(C)C1=O .
Out: inactive

In: Please indicate how the test categorized CCN[C@H]1CN(CCCOC)S(=O)(=O)c2sc(S(N)(=O)=O)cc21 .
Out: inactive

* * *

# experimental.protocol: Viability qHTS for spleen associated tyrosine kinase inhibitor (SYKi) drug resistant MV4-11 cells (AID 1963824); also: nearly all actives have a fitted effect of over 35% in size; also: potency is read from the fitted curve at half-maximal effect
# test.parameters: SYKi-resistant MV4-11 viability, CellTiter-Glo, 72 h; series mostly up to 45 µM
Results filed as inconclusive are left out. Active and inactive are the calls of the source. The call rests on the fitted dose curve; in most records, active means well fitted cell-killing curve with a large enough effect; inconclusive means small, poorly fitted or top-dose-only effect, or effect the other way; inactive means no such curve, though single readings can be large or run the other way.
measure.name: Potency

{"columns": ["compound", "Potency"],
 "data": [
  ["O=C(O)[C@@H](O)[C@H](O)[C@H](O)[C@@H](O)C(=O)O", "inactive"],
  ["C=CCNC1=C2CC(C)CC(OC)C(O)C(C)/C=C(\\C)C(OC(N)=O)C(OC)/C=C/C=C(\\C)C(=O)NC(=CC1=O)C2=O (stereo not drawn)", "0.332 µM (active)"],
  ["Nc1ncnc2c1c(-c1cccc(OCc3ccccc3)c1)cn2C1CC(CN2CCC2)C1 (stereo not drawn)", "0.92 µM (active)"],
  ["CC(=O)[C@]1(N)Cc2c(O)c3c(c(O)c2[C@@H](O[C@H]2C[C@H](O)[C@H](O)CO2)C1)C(=O)c1ccccc1C3=O", "4.68 µM (active)"],
  ["COc1ccc2cccc(CCNC(C)=O)c2c1", "inactive"],
  ["CCCCCCCCCCCCCC(=O)N[C@H](CO)[C@H](O)c1ccc([N+](=O)[O-])cc1", "23.5 µM (active)"],
  ["CCCn1c(=O)c2[nH]c(-c3ccc(OCC(=O)O)cc3)nc2n(CCC)c1=O", "inactive"],
  ["COc1cc2nccc(Oc3ccc(NC(=O)NC4CC4)c(Cl)c3)c2cc1C(N)=O", "1.03 µM (active)"]
]}

In: Please look up its Potency: C=C1C(=O)OC2C1CCC1(C)C(O)CC=C(C)C21 (stereo not drawn)
Out: 4.61 µM (active)

In: Please look up its Potency: CCOC(=O)OC(C)OC1=C(C(=O)Nc2ccccn2)N(C)S(=O)(=O)c2ccccc21 (stereo not drawn)
Out: inactive

In: Please look up its Potency: COc1ccc(/C=C\C(=O)O)c(O[C@@H]2O[C@H](CO)[C@@H](O)[C@H](O)[C@H]2O)c1
Out: inactive

In: Please look up its Potency: NS(=O)(=O)c1ccc(NC(=S)N2CCN(C/C=C/c3ccccc3)CC2)cc1
Out: 14.8 µM (active)

In: Please look up its Potency: N[C@@H](CC(=O)N1CCn2c(nnc2C(F)(F)F)C1)Cc1[nH]nc2c(F)c(F)ccc12
Out: inactive

In: Please look up its Potency: C[C@]12CC[C@@H]3c4ccc(O)cc4CC[C@H]3[C@@H]1CC[C@@H]2O
Out: 14.8 µM (active)

In: Please look up its Potency: CO[C@H]1C=CO[C@@]2(C)Oc3c(C)c(O)c4c(O)c(c5c(c4c3C2=O)NC2(CCN(CC(C)C)CC2)N=5)=NC(=O)C(C)=CC=C[C@H](C)[C@H](O)[C@@H](C)[C@@H](O)[C@@H](C)[C@H](OC(C)=O)[C@H]1C
Out: 18.4 µM (active)

In: Please look up its Potency: NS(=O)(=O)c1cccc2c1C(=O)c1cccc(O)c1C2=O
Out: 0.468 µM (active)

In: Please look up its Potency: COC(=O)C1=COC(OC2OC(CO)C(O)C(O)C2O)C2C(COC(=O)/C=C/c3ccc(O)cc3)C(O)C(O)C12 (stereo not drawn)
Out: inactive

In: Please look up its Potency: CN1CC[C@H](c2c(O)cc(O)c3c(=O)cc(-c4ccccc4Cl)oc23)[C@H](O)C1
Out: 0.299 µM (active)

* * *

# experimental.protocol: Cellular viability qHTS for adrenocortical cancer (ACC) cell line SW-13 (AID 1963989);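 also: cells grown in serum-free medium with ITS supplement; % is scaled to controls: 0 for no effect and ±100 for the full control effect; nearly all actives have a fitted effect of over 65% in size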
# test.parameters: SW-13 ACC cells viability, CellTiter-Glo, 48 h; stronger effect = lower value
Records with an inconclusive call do not appear.
measure.name: activity (max response) (%)
Your answer is read as %, so omit the unit and give the number.

Examples with their reported activity (max response) follow.
{"columns": ["compound", "activity (max response) / %"],
 "data": [
  ["CCC(C(=O)OCCN1CCOC(c2ccccc2)C1C)c1ccccc1 (stereo not given)", 3.6],
  ["CCn1cc(C(=O)O)c(=O)c2cc3c(cc21)OCO3", -2.41],
  ["C[C@H]1[C@H](C)CC[C@]2(C(=O)O)CC[C@]3(C)C(=CC[C@@H]4[C@@]5(C)CC[C@H](O)C(C)(C)[C@@H]5CC[C@]43C)[C@H]12", -4.55],
  ["C=C1C[C@@]2(O)O[C@@]3(C[C@H]2C(C)C)[C@@H](C)CC[C@@H]13", 6.19],
  ["C[C@H](NC(=O)c1c(N)nn2cccnc12)c1cc2cccc(C#Cc3cnn(C)c3)c2c(=O)n1-c1ccccc1", -17.5],
  ["CC(/C=C/[C@@H]1C[C@]1(C)c1ccc2c(c1)C(C)(C)CCC2(C)C)=C\\C(=O)O", -5.24]
]}

In: Please look up its activity (max response): O=C([O-])C[O-].[Pt+2]
Out: -1.3

In: Please look up its activity (max response): CC(=O)[C@H]1CC[C@H]2[C@@H]3C[C@H](C)C4=CC(=O)CC[C@]4(C)[C@H]3[C@@H](O)C[C@]12C
Out: 8.53

In: Please look up its activity (max response): Cc1c(F)ccc(C(=O)Nc2cc([N+](=O)[O-])ccc2N2CCN(C)CC2)c1Cl
Out: -19.1

In: Please look up its activity (max response): CCCn1c(=O)c2[nH]c(C34CC5CC3C[C@@H](C5)C4)nc2n(CCC)c1=O
Out: -4.88

In: Please look up its activity (max response): C/C=C(/C)C(=O)O[C@H]1C(C)=CC23C(=O)C(C=C(CO)[C@@H](O)[C@]12O)[C@H]1[C@@H](C[C@H]3C)C1(C)C (stereo not given in full)
Out: -8.96

In: Please look up its activity (max response): CC(=O)O[C@]1(C(C)=O)CC[C@H]2[C@@H]3C[C@H](C)C4=CC(=O)CC[C@]4(C)[C@H]3CC[C@@]21C
Out: -20.8

In: Please look up its activity (max response): O=C(OC1C[C@H]2CC[C@@H](C1)[N+]21CCCC1)C(O)(c1ccccc1)c1ccccc1 (stereo not given in full)
Out: -1.15

* * *

# experimental.protocol: Viability qHTS for spleen associated tyrosine kinase inhibitor (SYKi) naive MV4-11 cells (AID 1963823); also: nearly all actives have a fitted effect of over 40% in size
# test.parameters: MV4-11 AML viability, CellTiter-Glo luminescence, 72 h; series mostly up to 45 µM
Inconclusive results are not listed. Active and inactive are the calls of the source. Calls follow the shape of the dose curve; as a rule, active = well fitted cell-killing curve with a large enough effect; inconclusive = small, poorly fitted or top-dose-only effect, or effect the other way; inactive = no such curve, though single readings can be large or run the other way.
Respond with a class label; see t (active), f (inactive)

{"columns": ["molecule", "assigned.class"],
 "data": [
  ["COc1cc2nc(N3CCN(C(=O)c4ccco4)CC3)nc(N)c2cc1OC", "t"],
  ["NC(=O)C(O[C@@H]1O[C@H](CO[C@@H]2O[C@H](CO)[C@@H](O)[C@H](O)[C@H]2O)[C@@H](O)[C@H](O)[C@H]1O)c1ccccc1 (some centres undefined)", "f"],
  ["OCCN1CCN(CC/C=C2/c3ccccc3Sc3ccc(C(F)(F)F)cc32)CC1", "t"]
]}

In: Please indicate how the test categorized CC(CCC1C(C(=O)O)=CC(=O)CC1(C)C)O[C@@H]1O[C@H](CO)[C@@H](O)[C@H](O)[C@H]1O (some centres undefined) .
Out: f
